Data provenance: patent US20250277029A1

target: T1, His-tagged huCB1-ND (human CB1 in nanodisc) (human); test: flow cytometry, yeast-displayed IgG, binding/display ratio
T1 construct: CB1 construct of Cell 167(3) (2016) 750-762 expressed in Sf9 cells; POPC:MSP1D1:CB1 480:8:1; also called CB1-nanodisc; huCB1-Nanodisc; not shown: histidine purification tag
T1 sequence (P21554 99-414): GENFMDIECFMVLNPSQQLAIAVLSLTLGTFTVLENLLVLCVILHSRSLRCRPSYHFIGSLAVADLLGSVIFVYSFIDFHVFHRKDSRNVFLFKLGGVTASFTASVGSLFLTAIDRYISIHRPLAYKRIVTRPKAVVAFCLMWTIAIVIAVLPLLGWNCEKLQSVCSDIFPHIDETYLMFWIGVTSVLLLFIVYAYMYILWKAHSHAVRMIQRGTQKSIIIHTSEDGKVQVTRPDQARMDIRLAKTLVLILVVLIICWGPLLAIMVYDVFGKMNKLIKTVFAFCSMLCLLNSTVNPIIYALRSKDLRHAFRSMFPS
endpoint: 0.200 nM huCB1-Nanodisc binding (relative to 10D10N35Y) (fold)
Answer in fold, number only, no unit symbol.

Data request: Item LIBC527919-1 (antibody, IgG1, V domains shown) VH: QVQLQESGPGLVKPSQTLSLTCTVSGGSIRRGGDYWAWIRQHPGKGLEWIGHVYQTGSTAYNPNFKDRATISVNTYKNQFSLKLSSVTAADTAVYYCARNYDALSGYSYYYYGMDVWGQGTTVTVSS VL: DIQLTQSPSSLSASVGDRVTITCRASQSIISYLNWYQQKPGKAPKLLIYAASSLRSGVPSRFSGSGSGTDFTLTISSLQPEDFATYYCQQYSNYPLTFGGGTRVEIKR has what recorded 0.200 nM huCB1-Nanodisc binding (relative to 10D10N35Y)?
Data returned: 5.22

Data request: Reported 0.200 nM huCB1-Nanodisc binding (relative to 10D10N35Y) for LIBC527879-1 (antibody, V domains shown) VH: QVQLQESGPGLVKPSQTLSLTCTVSGGSIRRGGDYWGWIRQHPGKGLEWIGHIYQSGSTNYNPKLKSRATISVDTYKNQFSLKLSSVTAADTAVYYCARDYDIFTGYSYYYYGMDVWGQGTTVTVSS VL: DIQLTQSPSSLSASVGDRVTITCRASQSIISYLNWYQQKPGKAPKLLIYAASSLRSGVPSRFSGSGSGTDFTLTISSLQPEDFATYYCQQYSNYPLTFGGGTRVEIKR : what is it?
Data returned: 5.75

Data request: Entry under review: LIBC527997-1 (antibody, IgG1, V domains shown) VH: QVQLQESGPGLVKPSQTLSLTCTVSGGSIRRGGDYWAWIRQHPGKGLEWIGHIYQTGSTNYNPRFKGRATISVNTYKNQFSLKLSSVTAADTAVYYCARNYDTLTGYSYYYYGMDVWGQGTTVTVSS VL: DIQMTQSPSSLSASVGDRVTITCRASQSISNYLNWYQQKPGKAPKLLIYAASSLHSGVPSRFSGSGSGTDFTLTISSLQPEDFASYYCQQYQSYPLTFGQGTKVEIKR . Reported 0.200 nM huCB1-Nanodisc binding (relative to 10D10N35Y)?
Data returned: 6.38

Data request: Look at this binder and give its reported 0.200 nM huCB1-Nanodisc binding (relative to 10D10N35Y). LIBC528141-1 (antibody, V domains shown) VH: QVQLQESGPGLVKPSQTLSLTCTVSGGSIRRGGDYWSWIRQHPGKGLEWIGHVYQTGSTKYNPRFKGRATISVNTYKNQFSLKLSSVTAADTAVYYCARDYDILTGYSYYYYGMDVWGQGTTVTVSS VL: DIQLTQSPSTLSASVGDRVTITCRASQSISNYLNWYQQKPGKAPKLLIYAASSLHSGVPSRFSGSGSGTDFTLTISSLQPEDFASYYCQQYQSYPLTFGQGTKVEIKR
Data returned: 6.2

Data request: Look up 0.200 nM huCB1-Nanodisc binding (relative to 10D10N35Y) for this binder: LIBC527814-1 (antibody, IgG1, V domains shown) VH: QVQLQESGPGLVKPSQTLSLTCTVSGGSIRRGGDYWGWIRQHPGKGLEWIGHVYQTGSTKYNPSFKDRATISVNTYKNQFSLKLSSVTAADTAVYYCARNYDTLTGYSYYYYGMDVWGQGTTVTVSS VL: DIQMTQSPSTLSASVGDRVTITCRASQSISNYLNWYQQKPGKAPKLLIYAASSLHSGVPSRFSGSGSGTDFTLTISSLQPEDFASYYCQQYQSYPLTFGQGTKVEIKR
Data returned: 6.49
